Assay: Pharmacokinetics study after IV and PO administration to SD rats
Format: in vivo
Conditions: SD, rat, plasma, po, 20 mg/kg, SD rats, p.o. 20 mg·kg^−1; read-out: AUC0‐∞
outcome_measure: AUC (ng·h/mL)
State just the number; it will be interpreted in ng·h/mL.

Could you please provide reported AUC for COc1cc(OC)c(Cl)c(-c2ccc3c(/C=C/c4ccc(N(C)C(=O)CN5CCN(C)CC5)cc4)n[nH]c3c2)c1Cl ? Thanks!
1610

----------
Assay: Pharmacokinetics study after IV and PO administration to SD rats
Type: in vivo
Settings: Sprague-Dawley, rat, plasma, iv, 2 mg/kg, IV 2 mg/kg, 0.5 h; read-out: Mean plasma concentration
outcome_measure: concentration at 0.5 h
Number first, unit second: that is the form wanted.

Could you please provide reported concentration at 0.5 h for COc1cc(OC)c(Cl)c(-c2ccc3c(/C=C/c4ccc(N(C)C(=O)CN5CCN(C)CC5)cc4)n[nH]c3c2)c1Cl ? Thanks!
149 ng/mL
